Assay system: T1, YTHDC2 YTH domain (Homo sapiens, UniProt Q9H6S0 1277-1430)
T1 sequence: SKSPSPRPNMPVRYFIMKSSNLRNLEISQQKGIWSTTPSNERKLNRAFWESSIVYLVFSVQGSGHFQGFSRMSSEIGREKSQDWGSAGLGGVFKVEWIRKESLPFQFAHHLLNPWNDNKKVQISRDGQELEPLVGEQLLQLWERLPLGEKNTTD
Method description: fluorescence anisotropy

Binder: CCGGACUGU (ssRNA, N6-methyladenosine at position 5) [GGm6ACU 9-nt RNA]
Kd / µM: 3.2
